Measured values drawn from patent US9029381B2 for this set.

Molecular target: human histamine H3 receptors (Homo sapiens (Human), UniProt Q9Y5N1)
Sequence (Q9Y5N1 whole entry): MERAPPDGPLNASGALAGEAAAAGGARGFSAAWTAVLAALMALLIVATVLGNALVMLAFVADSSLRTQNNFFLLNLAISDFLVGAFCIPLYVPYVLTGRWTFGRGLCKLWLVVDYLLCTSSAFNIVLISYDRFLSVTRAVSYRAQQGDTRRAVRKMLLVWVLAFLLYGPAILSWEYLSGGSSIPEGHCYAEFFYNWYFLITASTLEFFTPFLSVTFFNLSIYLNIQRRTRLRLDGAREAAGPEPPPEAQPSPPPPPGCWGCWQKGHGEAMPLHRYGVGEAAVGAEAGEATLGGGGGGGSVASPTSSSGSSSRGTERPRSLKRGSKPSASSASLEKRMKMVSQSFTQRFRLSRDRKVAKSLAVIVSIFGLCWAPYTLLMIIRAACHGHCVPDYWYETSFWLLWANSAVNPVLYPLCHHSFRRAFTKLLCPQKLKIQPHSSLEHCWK
Assay: Histamine H3 SPA with the agonist radioligand [3H]-N-α-methylhistamine (hH3 binding)
Conditions: inhibition of [3H]-N-α-methylhistamine (1.4 nM) binding to CHO-K1 membranes expressing full-length human H3 (isoform 445)
Consider the following compounds; for each one, report its pIC50.
Lab note: report pIC50 as minus log10 of the concentration in molar units, number only.

Name the recorded pIC50 of the compound listed here: O=C([C@H]1C[C@@H]1c1ccccc1)N1CCN(C2CC2)CC1 (relative stereo)
7.35

Please give the documented pIC50 of O=C([C@H]1C[C@@H]1c1ccccc1)N1CCN(C2CCCC2)CC1 (relative stereo)
7.85

Please give the documented pIC50 of O=C([C@H]1C[C@@H]1c1ccc(C(F)(F)F)nc1)N1CCN(C2CCC2)CC1 (relative stereo)
7.05

Using known records, supply pIC50 for O=C([C@H]1C[C@@H]1c1ccccc1)N1CCN(C2CCCCC2)CC1 (relative stereo)
6.98

Retrieve pIC50 measured for O=C([C@@H]1C[C@H]1c1ccc(F)cc1)N1CCN(C2CCC2)CC1 (relative stereo) and print it.
8.14
